Target: PTK2 enzyme (Homo sapiens, UniProt Q05397)
Construct: purchased Invitrogen PV3832
Sequence (Q05397 whole entry): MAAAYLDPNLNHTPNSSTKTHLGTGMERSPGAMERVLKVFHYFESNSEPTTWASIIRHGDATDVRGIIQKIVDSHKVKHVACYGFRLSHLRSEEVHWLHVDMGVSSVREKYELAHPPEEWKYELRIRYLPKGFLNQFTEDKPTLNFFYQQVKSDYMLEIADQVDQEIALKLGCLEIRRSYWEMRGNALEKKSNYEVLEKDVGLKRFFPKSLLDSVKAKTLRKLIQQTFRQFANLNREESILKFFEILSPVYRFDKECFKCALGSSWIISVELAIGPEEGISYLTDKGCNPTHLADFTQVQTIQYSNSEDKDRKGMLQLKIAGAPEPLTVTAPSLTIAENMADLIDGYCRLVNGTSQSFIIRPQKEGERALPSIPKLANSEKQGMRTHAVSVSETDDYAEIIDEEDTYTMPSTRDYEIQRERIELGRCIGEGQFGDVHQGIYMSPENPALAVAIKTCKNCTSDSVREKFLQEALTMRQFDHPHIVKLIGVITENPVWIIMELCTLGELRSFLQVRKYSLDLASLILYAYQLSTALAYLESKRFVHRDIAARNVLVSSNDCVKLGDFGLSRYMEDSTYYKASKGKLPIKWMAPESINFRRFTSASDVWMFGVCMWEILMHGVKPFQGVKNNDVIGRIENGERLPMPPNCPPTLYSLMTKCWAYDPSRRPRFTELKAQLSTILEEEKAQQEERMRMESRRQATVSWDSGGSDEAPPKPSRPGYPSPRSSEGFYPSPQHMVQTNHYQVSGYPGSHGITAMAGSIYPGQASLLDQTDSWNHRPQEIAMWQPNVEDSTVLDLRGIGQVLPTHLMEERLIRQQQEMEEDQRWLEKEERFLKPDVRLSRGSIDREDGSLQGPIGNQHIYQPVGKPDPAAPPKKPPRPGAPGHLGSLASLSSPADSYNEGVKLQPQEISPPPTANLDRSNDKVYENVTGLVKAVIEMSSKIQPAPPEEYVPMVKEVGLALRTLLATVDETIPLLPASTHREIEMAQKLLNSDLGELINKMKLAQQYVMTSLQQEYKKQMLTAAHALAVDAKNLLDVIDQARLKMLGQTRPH
Assay: PTK2 enzyme test, Assay 1 (DELFIA, poly-Glu-Tyr substrate, antibody PT60)
Assay type: biochemical
Settings: Assay 1 (values without *); 1 h pre-incubation, 2% DMSO
pIC50: −log10 of the molar value.
observationType: pIC50

COc1cc(N2CCN(C)CC2)ccc1Nc1ncc(C(F)(F)F)c(N[C@@H]2CCCC[C@H]2NC(=O)CC(C)C)n1 [Example I-33] :: 7.15
CCN([C@@H]1CCCC[C@H]1Nc1nc(Nc2ccc(C(=O)NC3CCN(C)CC3)cc2OC)ncc1C(F)(F)F)S(C)(=O)=O [Example I-91] :: 9.00

A = COc1cc(C(=O)NC2CCN(C)CC2)c(C)cc1Nc1ncc(Cl)c(N[C@@H]2CCCC[C@H]2N(C)S(C)(=O)=O)n1 [Example I-164]
B = COc1cc(C(=O)NC2CCOCC2)ccc1Nc1ncc(Br)c(N[C@@H]2CCCC[C@H]2NC(C)=O)n1 [Example I-44]
Which record would sort first by descending pIC50, A or B ? Mark your selection by writing its label.
A
(A: 9.00, B: 8.70)

====

Molecular target: PTK2 enzyme (Homo sapiens)
Construct: purchased Invitrogen PV3832
Assay: PTK2 enzyme test, Assay 1 (DELFIA, poly-Glu-Tyr substrate, antibody PT60)
Format: biochemical
Details: Assay 1 (values without *); 1 h pre-incubation, 2% DMSO
pIC50: −log10 of the molar value.
observationType: pIC50

COc1cc(C(=O)NCCN(C)C)c(Cl)cc1Nc1ncc(Cl)c(N[C@@H]2CCCC[C@H]2N(C)S(C)(=O)=O)n1 :: 8.70
CCS(=O)(=O)N(C)[C@@H]1CCCC[C@H]1Nc1nc(Nc2ccc(C(=O)NCCN(C)C)cc2OC)ncc1C(F)(F)F :: 8.70
COc1cc(Nc2ncc(Cl)c(N[C@@H]3CCCC[C@H]3NC(C)=O)n2)cc(OC)c1OC :: 7.89
CC(=O)Nc1ccc(Nc2ncc(C(F)(F)F)c(N[C@@H]3CCCC[C@H]3N(C)S(C)(=O)=O)n2)cc1Cl :: 8.22
CNC(=O)c1cc(OC)c(Nc2ncc(C(F)(F)F)c(N[C@@H]3CCCC[C@H]3N(C)S(C)(=O)=O)n2)cc1Cl :: 9.00

I = CNC(=O)c1ccc(Nc2ncc(C(F)(F)F)c(N[C@@H]3CCCC[C@H]3NC(C)=O)n2)c(OC)c1 [Example I-6]
II = COc1cc(C(=O)NC2CCCN(C)C2)ccc1Nc1ncc(C(F)(F)F)c(N[C@@H]2CCCC[C@H]2N(C)C(C)=O)n1 (stereo partly drawn)
III = COc1cc(C(=O)NC2CCN(C)CC2)ccc1Nc1ncc(C(F)(F)F)c(N[C@@H]2CCCC[C@H]2N2CCCC2=O)n1
Sort ascending by pIC50. Arrange the labels as the request states and list them.
I, III, II

I = CNC(=O)c1ccc(Nc2ncc(Cl)c(N[C@@H]3CCCC[C@H]3NC(C)=O)n2)c(OC)c1
II = COc1cc(C(=O)NC2CCN(C)CC2)c(F)cc1Nc1ncc(C(F)(F)F)c(N[C@@H]2CCCC[C@H]2NC(C)=O)n1
Which record would sort first by descending pIC50, I or II ? Mark your selection by writing its label.
II

a = CCC(=O)N(C)[C@@H]1CCCC[C@H]1Nc1nc(Nc2ccc(C(=O)NC3CCN(C)CC3)cc2OC)ncc1C(F)(F)F
b = COc1cc(C(=O)NCCCN(C)C)ccc1Nc1ncc(C(F)(F)F)c(N[C@@H]2CCCC[C@H]2N(C)C(C)=O)n1
Which record would sort first by descending pIC50, a or b ? Mark your selection by writing its label.
b
